Sourced from patent US20260201064A1

Molecular target: T1, recombinant human ASM protein (human, UniProt P17405 47-630)
T1 construct: Recombinant human ASM in solution; also called acid sphingomyelinase (ASM) protein
T1 sequence: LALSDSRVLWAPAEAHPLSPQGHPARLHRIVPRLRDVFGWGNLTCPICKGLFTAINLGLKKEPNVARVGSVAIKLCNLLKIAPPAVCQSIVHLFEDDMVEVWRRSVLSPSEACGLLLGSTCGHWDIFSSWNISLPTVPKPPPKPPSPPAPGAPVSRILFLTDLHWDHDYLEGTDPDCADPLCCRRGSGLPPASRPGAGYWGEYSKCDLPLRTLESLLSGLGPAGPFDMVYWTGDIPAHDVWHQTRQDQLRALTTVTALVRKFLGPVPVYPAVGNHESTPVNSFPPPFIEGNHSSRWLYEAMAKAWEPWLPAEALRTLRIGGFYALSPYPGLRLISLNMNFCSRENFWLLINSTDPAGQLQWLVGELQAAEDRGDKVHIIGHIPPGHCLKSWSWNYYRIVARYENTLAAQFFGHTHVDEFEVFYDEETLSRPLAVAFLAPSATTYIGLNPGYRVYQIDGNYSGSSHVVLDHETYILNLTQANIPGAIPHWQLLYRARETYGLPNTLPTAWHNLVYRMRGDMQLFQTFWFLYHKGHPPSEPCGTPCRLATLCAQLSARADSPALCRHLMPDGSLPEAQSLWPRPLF
Assay: BLI (Octet), antibody on AHC sensor
Listed binders paired with reported Kd
Enter your answer as a number in nM; do not include the unit.

For orientation, consider the following solved cases.
binder: #9104a-E6 (antibody, human IgG4 S228P, lambda, V domains shown, VH of #9104v-H27 with VL of #9104v-L65; full-length IgG, lambda) VH: EVQLLESGGGLVQPGGSLRLSCAASGFTFSNYYMSWVRQAPGKGLEWVSGTYYDSGYVYYADSVKGRFTISRDNSKNTLYLQMNSLRAEDTAVYYCARDTPGFDYWGQGTLVTVSS VL: QSVLTQPPSASGTPGQRVTISCTGSSSNIGNNAVNWYQQLPGTAPKLLIYYDYYQSSGVPDRFSGSKSGTSASLAISGLRSEDEADYYCGAWDYSLSAYVFGGGTKLTVLG
Kd / nM: 1.19
//
binder: #9104a-D3 (antibody, human IgG4 S228P, lambda, V domains shown, VH of #9104v-H13 with VL of #9104v-L64; full-length IgG, lambda) VH: EVQLLESGGGLVQPGGSLRLSCAASGFTFSNYYMSWVRQAPGKGLEWVSGIYYGSGIPYYANSVKGRFTISRDNSKNTLYLQMNSLRAEDTAVYYCARDTPGFDYWGQGTLVTVSS VL: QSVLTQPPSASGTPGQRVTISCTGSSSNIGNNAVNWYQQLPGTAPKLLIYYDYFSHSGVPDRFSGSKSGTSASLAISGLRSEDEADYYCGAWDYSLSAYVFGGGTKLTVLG
Kd / nM: 0.229

The recorded Kd for #9104a-E4 (antibody, human IgG4 S228P, lambda, V domains shown, VH of #9104v-H17 with VL of #9104v-L65; full-length IgG, lambda) VH: EVQLLESGGGLVQPGGSLRLSCAASGFTFSNYYMSWVRRAPGKGLEWVSGIYYGSGTPYYAASVKGRFTISRDNSKNTLYLQMNSLRAEDTAVYYCARDTPGFDYWGQGTLVTVSS VL: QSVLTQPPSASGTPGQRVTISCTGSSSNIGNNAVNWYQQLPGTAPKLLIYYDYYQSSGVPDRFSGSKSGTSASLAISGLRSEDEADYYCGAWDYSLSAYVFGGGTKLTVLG is 0.197

The recorded Kd for #9104a-C3 (antibody, human IgG4 S228P, lambda, V domains shown, VH of #9104v-H13 with VL of #9104v-L23; full-length IgG, lambda) VH: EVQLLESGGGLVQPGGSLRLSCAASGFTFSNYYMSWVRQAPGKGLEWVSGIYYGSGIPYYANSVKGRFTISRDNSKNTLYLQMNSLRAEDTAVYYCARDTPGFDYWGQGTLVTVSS VL: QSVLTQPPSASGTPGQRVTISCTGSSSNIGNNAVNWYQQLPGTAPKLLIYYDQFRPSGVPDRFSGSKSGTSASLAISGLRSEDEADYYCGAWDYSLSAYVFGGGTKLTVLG is 0.176

The recorded Kd for #9104a-B7 (antibody, human IgG4 S228P, lambda, V domains shown, VH of #9104v-H31 with VL of #9104v-L21; full-length IgG, lambda) VH: EVQLLESGGGLVQPGGSLRLSCAASGFTFSNYYMSWVRQAPGKGLEWVSGVYYGSGTPYYADSVKGRFTISRDNSKNTLYLQMNSLRAEDTAVYYCARDTPGFDYWGQGTLVTVSS VL: QSVLTQPPSASGTPGQRVTISCTGSSSNIGNNAVNWYQQLPGTAPKLLIYYDMFRPNGVPDRFSGSKSGTSASLAISGLRSEDEADYYCGAWDYSLSAYVFGGGTKLTVLG is 0.163
